Cited source for all entries: patent US10722484B2

# Test system: H358
# experiment: Proliferation assay (CellTiter Glo)
# Format: cell-based
# conditions_used: Homo sapiens, NCI-H358; HE58; relative EC50; 96 hours; read-out: Re EC50
property_label: EC50 (nM)

molecule	target	property_label	unit	assay_value
C/C=C(/C)C(=O)O[C@H]1C(C)=C[C@]23C(=O)[C@@H](C=C(CO)[C@@H](O)[C@]12O)[C@H]1[C@@H](C[C@H]3C)C1(C)C [Compound K102, ingenol-3-angelate]	H358	EC50	nM	4.5
CC(=O)O[C@H]1C(=O)[C@@]2(C)[C@H]([C@H](OC(=O)c3ccccc3)[C@]3(O)C[C@H](OC(=O)[C@H](O)[C@@H](NC(=O)c4ccccc4)c4ccccc4)C(C)=C1C3(C)C)[C@]1(OC(C)=O)CO[C@@H]1C[C@@H]2O	H358	EC50	nM	1.8
CCCCCCCCCCCCCC(=O)O[C@@H]1[C@@H](C)[C@@]2(O)[C@@H](C=C(CO)C[C@]3(O)C(=O)C(C)=C[C@@H]23)[C@@H]2C(C)(C)[C@]12OC(C)=O [Compound K103, 12-O-Tetradecanoylphorbol-13-acetate]	H358	EC50	nM	0.4
CC(=O)O[C@@]12C[C@@H](C)[C@@]3(O)[C@@H](C=C(CO)C[C@]4(O)C(=O)C(C)=C[C@@H]34)[C@@H]1C2(C)C [Compound K101A, 12-deoxyphorbol 13-acetate]	H358	EC50	nM	160

* * *

Each entry below carries its recorded Top Inhibition %.
# System: H838
# experiment: Proliferation assay (CellTiter Glo)
# Type: cell-based
# conditions_used: H838 (RAS WT); 96 hours

compound	Top Inhibition %
CC(=O)O[C@@]12C[C@@H](C)[C@@]3(O)[C@@H](C=C(CO)C[C@]4(O)C(=O)C(C)=C[C@@H]34)[C@@H]1C2(C)C [Compound K101A, 12-deoxyphorbol 13-acetate]	10.1%
CC(=O)O[C@H]1C(=O)[C@@]2(C)[C@H]([C@H](OC(=O)c3ccccc3)[C@]3(O)C[C@H](OC(=O)[C@H](O)[C@@H](NC(=O)c4ccccc4)c4ccccc4)C(C)=C1C3(C)C)[C@]1(OC(C)=O)CO[C@@H]1C[C@@H]2O	96.5%

* * *

# Test system: THP1
# experiment: Proliferation assay (CellTiter Glo)
# Format: cell-based, human
# conditions_used: THP1; % of top inhibition; 96 hours
# Experimental: The dose range for most compounds was 4.6 nM-30 μM. The dose ranges for some compounds were adjusted downward to 0.46 nM-3 μM or 0.08 nM-0.5 μM or 0.03 nM-0.2 μM. […] The results are shown in Tables 3-6 for pancreatic cancer, lung cancer, colon/gastric cancer, and leukemia.
property_label: Top Inhibition %

compound	target	assay_value
CCCCCCCCCCCCCC(=O)O[C@@H]1[C@@H](C)[C@@]2(O)[C@@H](C=C(CO)C[C@]3(O)C(=O)C(C)=C[C@@H]23)[C@@H]2C(C)(C)[C@]12OC(C)=O [Compound K103, 12-O-Tetradecanoylphorbol-13-acetate]	THP1	52.9%
CC(=O)O[C@@]12C[C@@H](C)[C@@]3(O)[C@@H](C=C(CO)C[C@]4(O)C(=O)C(C)=C[C@@H]34)[C@@H]1C2(C)C [Compound K101A, 12-deoxyphorbol 13-acetate]	THP1	51.8%
CC(=O)OC12CC(C)C3(O)C(C=C(CO)CC4(O)C(O)C(C)=CC43)C1C2(C)C (stereo not shown) [Compound K101C]	THP1	51.4%
C/C=C(/C)C(=O)O[C@H]1C(C)=C[C@]23C(=O)[C@@H](C=C(CO)[C@@H](O)[C@]12O)[C@H]1[C@@H](C[C@H]3C)C1(C)C [Compound K102, ingenol-3-angelate]	THP1	52.4%
CC(=O)OC12CC(C)C3(O)C(C4OC4(CO)CC4(O)C(O)C(C)=CC43)C1C2(C)C (stereo not shown) [Compound K101D]	THP1	33.6%
CC(=O)O[C@H]1C(=O)[C@@]2(C)[C@H]([C@H](OC(=O)c3ccccc3)[C@]3(O)C[C@H](OC(=O)[C@H](O)[C@@H](NC(=O)c4ccccc4)c4ccccc4)C(C)=C1C3(C)C)[C@]1(OC(C)=O)CO[C@@H]1C[C@@H]2O	THP1	91.2%
CC(=O)OCC1=CC2C3C(C)(C)C3(OC(C)=O)CC(C)C2(O)C2C=C(C)C(=O)C2(O)C1 (stereo not shown) [Compound K101E]	THP1	51.6%
